In this section we review reported log10 of MBC values for a set of compounds.
# System: Escherichia coli
# protocol: Bactericidal activity against Escherichia coli ATCC 25922 incubated for 16 hrs
# Assay type: functional
All values: base-10 log of MBC in µM.

| compound | readout.label | reported.result |
| --- | --- | --- |
| COC(=O)[C@H](CCCc1cc2ccc3ccc4ccc5ccc1c1c5c4c3c21)NC(=O)[C@@H](N)CCCCN | log10 of MBC | 1.40 |
| CN(C)[C@@H]1C(O)=C(C(N)=O)C(=O)[C@@]2(O)C(O)=C3C(=O)c4c(O)cccc4[C@@](C)(O)[C@H]3C[C@@H]12 [TETRACYCLINE] | log10 of MBC | -0.11 |
| O=C(O)c1cn(C2CC2)c2cc(N3CCNCC3)c(F)cc2c1=O [CIPROFLOXACIN] | log10 of MBC | -0.41 |
| COC(=O)[C@H](Cc1cc2ccc3ccc4ccc5ccc1c1c5c4c3c21)NC(=O)CNC(=O)[C@@H](N)CCCCN | log10 of MBC | 1.70 |
| COC(=O)[C@H](Cc1cc2ccc3ccc4ccc5ccc1c1c5c4c3c21)NC(=O)[C@H](N)CCCCN | log10 of MBC | 2.30 |
| COC(=O)[C@H](CCCc1cc2ccc3ccc4ccc5ccc1c1c5c4c3c21)NC(=O)CNC(=O)[C@@H](N)CCCCN | log10 of MBC | 1.70 |

Let us move to another entry and its log10 of MBC.
Task: Note log10 of MBC for the compound shown: COC(=O)[C@H](Cc1cc2ccc3ccc4ccc5ccc1c1c5c4c3c21)NC(=O)[C@@H](N)CCCCN.Cl.Cl
Output: 1.70
